assay: chemical genetic growth profiling, strain panel (AID 1159580);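 also: tested at 20 µM; growth read once vehicle control cultures reached saturation at 30 °C; 1 = growth at the plate median or of vehicle wells; lower values mean less growth of the strain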; conditions: S. cerevisiae deletion strains, growth OD, locus YJL154C, strain vps35, stronger effect = lower value
The campaign covered roughly 5,500 compounds. About 2,000 (36%) were called active. Inconclusive results (about 18%) are left out. The list shows a part of the results.
This section presents compounds with their documented normalized growth values.

>  <compound>
CC(=O)Oc1ccc(-c2cc(=O)c3c(OC(C)=O)cc(OC(C)=O)cc3o2)cc1

>  <normalized growth>
0.961

$$$$
>  <compound>
CCCCCCCCCc1ccc(O)cc1

>  <normalized growth>
0.0618

$$$$
>  <compound>
C=C1C(N)CC2CC1C2(C)C (stereo unspecified)

>  <normalized growth>
0.998

$$$$
>  <compound>
NCCc1ccc(O)c(O)c1

>  <normalized growth>
1.01

$$$$
>  <compound>
CC(=O)N(O)CCCCCNC(=O)CCC(=O)N(O)CCCCCNC(=O)CCC(=O)N(O)CCCCCN

>  <normalized growth>
1.01

$$$$
>  <compound>
Cn1nnnc1SCC1=C(C(=O)O)N2C(=O)C(NC(=O)C(O)c3ccccc3)C2SC1 (stereo unspecified)

>  <normalized growth>
0.982

$$$$
>  <compound>
COc1ccc(-c2cc(=O)c3c(OC(C)=O)cc(OC(C)=O)cc3o2)cc1

>  <normalized growth>
0.997

$$$$
>  <compound>
O=c1c(-c2cc(O)c(O)c(O)c2)coc2cc(O)c(O)c(O)c12

>  <normalized growth>
1.01

$$$$
>  <compound>
CC(=O)Oc1cc(-c2coc3cc(OC(C)=O)c(OC(C)=O)c(OC(C)=O)c3c2=O)cc(OC(C)=O)c1OC(C)=O

>  <normalized growth>
0.978

$$$$
>  <compound>
ClC(Cl)=C(c1ccc(Cl)cc1)c1ccc(Cl)cc1

>  <normalized growth>
0.998

$$$$
>  <compound>
CN1CCOC(c2ccccc2)c2ccccc2C1 (stereo unspecified)

>  <normalized growth>
0.95

$$$$

----------
test: chemical genetic growth profiling, strain panel (AID 1159580); conditions: S. cerevisiae deletion strains, growth OD, locus YMR263W, strain SAP30, stronger effect = lower value
Among all 5,500 compounds or so, about 2,000 (36%) were called active. Another 18% or so got no clear call; they are omitted. This is one part of the list.
This section presents molecules with their documented normalized growth values.
property_name: normalized growth

>  <molecule>
CC(=O)[C@H]1CCC2C3CC=C4C[C@@H](OS(=O)(=O)O)CC[C@]4(C)C3CC[C@@]21C (stereo not given in full)

>  <assay_result>
0.978

$$$$
>  <molecule>
CC(=O)[C@H]1CCC2C3CC=C4C[C@@H](O)CC[C@]4(C)C3CC[C@@]21C (stereo not given in full)

>  <assay_result>
0.979

$$$$
>  <molecule>
CCC(/C=C/[C@@H](C)[C@H]1CCC2C3CC=C4C[C@@H](O)CC[C@]4(C)C3CC[C@@]21C)C(C)C (stereo not given in full)

>  <assay_result>
1.02

$$$$
>  <molecule>
NCCNC(=O)Cc1ccc(NC(=O)Cc2ccc(Nc3ncnc4c3ncn4[C@@H]3O[C@H](CO)[C@H](O)C3O)cc2)cc1 (stereo not given in full)

>  <assay_result>
1.01

$$$$
>  <molecule>
CC[N+]1(C)CCCC(OC(=O)C(O)(c2ccccc2)c2ccccc2)C1 (stereo not given)

>  <assay_result>
1.01

$$$$

----------
test: chemical genetic growth profiling, strain panel (AID 1159580); settings: S. cerevisiae deletion strains, growth OD, locus YOR290C, strain snf2, stronger effect = lower value
Among all 5,500 compounds or so, about 2,000 (36%) were called active. Another 18% or so got no clear call; they are omitted. Some of the results follow.
This section presents compounds with their documented normalized growth values.

>  <molecule_smiles>
O=c1cc(-c2cccc(O)c2)oc2ccc(O)cc12

>  <normalized growth>
0.893

$$$$
>  <molecule_smiles>
O=c1c(-c2ccc(O)cc2)coc2cc(O)cc(O)c12

>  <normalized growth>
0.989

$$$$
>  <molecule_smiles>
O=c1cc(-c2ccc(O)c(O)c2)oc2ccccc12

>  <normalized growth>
0.968

$$$$
>  <molecule_smiles>
O=c1cc(-c2ccc(O)cc2)oc2ccc(O)cc12

>  <normalized growth>
0.943

$$$$
>  <molecule_smiles>
O=c1c(-c2ccccc2)coc2cc(O)cc(O)c12

>  <normalized growth>
0.886

$$$$

----------
assay: chemical genetic growth profiling, strain panel (AID 1159580);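 also: tested at 20 µM; growth read once vehicle control cultures reached saturation at 30 °C; 1 = growth at the plate median or of vehicle wells; lower values mean less growth of the strain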; details: S. cerevisiae deletion strains, growth OD, locus YDR297W, strain sur2, stronger effect = lower value
About 2,000 (36%) of roughly 5,500 compounds were called active. Roughly 18% stayed inconclusive and do not appear here. The list shows a part of the results.
This section presents compounds with their documented normalized growth values.

>  <compound>
COc1cccc2c1cc([N+](=O)[O-])c1c(C(=O)O)cc3c(c12)OCO3

>  <normalized growth>
1.03

$$$$
>  <compound>
CC1(C)O[C@@H]2CC3C4C[C@H](F)C5=CC(=O)C=C[C@]5(C)[C@@]4(F)[C@@H](O)C[C@]3(C)[C@]2(C(=O)CO)O1 (some centres undefined)

>  <normalized growth>
1.01

$$$$
>  <compound>
CCC(/C=C/[C@@H](C)[C@H]1CCC2C3CC=C4C[C@@H](O)CC[C@]4(C)C3CC[C@@]21C)C(C)C (some centres undefined)

>  <normalized growth>
0.991

$$$$
>  <compound>
CC(=O)[C@H]1CCC2C3CC=C4C[C@@H](OC(=O)CCC(=O)O)CC[C@]4(C)C3CC[C@@]21C (some centres undefined)

>  <normalized growth>
0.95

$$$$
>  <compound>
C[N+]1(CCCCC[N+]2(C)CCCC2)CCCC1

>  <normalized growth>
1.01

$$$$
>  <compound>
CC(=O)OCC(=O)[C@H]1CCC2C3CC=C4C[C@@H](O)CC[C@]4(C)C3CC[C@@]21C (some centres undefined)

>  <normalized growth>
1.02

$$$$
>  <compound>
COc1ccc(-c2coc3cc(OC(C)=O)cc(OC(C)=O)c3c2=O)cc1

>  <normalized growth>
0.985

$$$$
>  <compound>
FC(F)(F)C(Cl)Br (centres undefined)

>  <normalized growth>
1.01

$$$$
>  <compound>
CC(=O)OCC(=O)[C@@]1(O)CCC2C3CC[C@@H]4C[C@H](O)CC[C@]4(C)C3C(=O)C[C@@]21C (some centres undefined)

>  <normalized growth>
1.01

$$$$

----------
test: chemical genetic growth profiling, strain panel (AID 1159580);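 also: tested at 20 µM; growth read once vehicle control cultures reached saturation at 30 °C; 1 = growth at the plate median or of vehicle wells; lower values mean less growth of the strain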; conditions: S. cerevisiae deletion strains, growth OD, locus YKL203C, strain TOR2, stronger effect = lower value
The campaign covered roughly 5,500 compounds. About 2,000 (36%) were called active. Inconclusive results (about 18%) are left out. The list shows a part of the results.
// map normalized growth onto a label; ranges low: < 0.8; intermediate: ≥ 0.8 and < 1; high: ≥ 1

>  <molecule_smiles>
CC(C)c1ccc(-c2cc(=O)c3ccccc3o2)cc1

>  <answer_label>
intermediate

$$$$
>  <molecule_smiles>
C#Cc1cccc(N=Cc2cc(Cl)cc(Br)c2O)c1

>  <answer_label>
low

$$$$
>  <molecule_smiles>
N#CCC(=O)c1cccc(CSc2ccccc2Cl)c1

>  <answer_label>
low

$$$$
>  <molecule_smiles>
O=C(NCc1cccs1)c1csc(Cc2c(Cl)cccc2Cl)n1

>  <answer_label>
high

$$$$
>  <molecule_smiles>
Fc1ccc(N/N=C\Cc2nnnn2-c2ccccc2)c(F)c1

>  <answer_label>
low

$$$$

----------
test: chemical genetic growth profiling, strain panel (AID 1159580);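 also: tested at 20 µM; growth read once vehicle control cultures reached saturation at 30 °C; 1 = growth at the plate median or of vehicle wells; lower values mean less growth of the strain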; conditions: S. cerevisiae deletion strains, growth OD, locus YFR003C, strain YPI1, stronger effect = lower value
In all, about 5,500 compounds went through this assay and about 2,000 (36%) were called active. Not shown: some 18% with an inconclusive outcome. This is one part of the list.
This section presents molecules with their documented normalized growth values.

>  <molecule>
O=C1c2ccccc2O[C@@H](c2ccccc2)[C@@H]1NC1CCCCC1

>  <normalized growth>
0.915

$$$$
>  <molecule>
CC(C)(C)c1csc(NC(=O)c2ccc(Cl)cc2Cl)n1

>  <normalized growth>
0.964

$$$$
>  <molecule>
Cc1cc(C(=O)O/N=C(/N)CSc2ncccc2C(F)(F)F)no1

>  <normalized growth>
0.993

$$$$
>  <molecule>
C/C(=N/Nc1nc(C(C)(C)C)cs1)c1ccc(Cl)c(Cl)c1

>  <normalized growth>
0.985

$$$$
>  <molecule>
N/C(CSc1ccc(Cl)cc1)=N/OC(=O)c1ccc(C(F)(F)F)cc1

>  <normalized growth>
0.908

$$$$
>  <molecule>
COc1ccc(C2CC(c3ccccc3)=Nc3ccccc3S2)cc1OC (stereo unspecified)

>  <normalized growth>
0.961

$$$$
>  <molecule>
CC(C)(C)c1cc2nc(C(F)(F)F)cc(NNC(=O)c3ccc(Cl)cc3)n2n1

>  <normalized growth>
0.992

$$$$
>  <molecule>
Cc1cc(C(=O)N(c2ccccc2)C(C)C2CC2)c(Cl)cc1Cl (stereo unspecified)

>  <normalized growth>
0.979

$$$$
>  <molecule>
CC(O)(CNCc1ccc(Cl)cc1)CSc1ccccc1Cl (stereo unspecified)

>  <normalized growth>
0.986

$$$$
>  <molecule>
N#CCC(=O)c1cccc(CSc2ccccc2Cl)c1

>  <normalized growth>
0.982

$$$$
>  <molecule>
CC(C)CSc1nnc(CSCc2nc(-c3ccc(Cl)cc3)cs2)n1C

>  <normalized growth>
0.965

$$$$
